Entry source: the supplement of paper PMC13380429

system: Vero E6 infected with SARS-CoV-2; test: inhibition of SARS-CoV-2 cytopathic effect; higher = more antiviral protection, active = above 15; conditions: 100 nM; 48 h
Measured property: inhibition of SARS-CoV-2 cytopathic effect (%)

Molecule: CC(C)(C)[C@H]1CC[C@H](CC2=C(O)C(=O)c3ccccc3C2=O)CC1
Experimental result: 2.36
--
Molecule: CN(C)CCn1cc(S(=O)(=O)c2cccc(F)c2)c2cccnc21
Experimental result: 1.09
--
Molecule: COc1ccc(-c2ccc3ncc4c(c3c2)n(-c2ccc(N3CCNCC3)c(C(F)(F)F)c2)c(=O)n4C)cn1
Experimental result: -0.69
--
Molecule: CCCCN1CCCC1CNC(=O)c1cc(C#N)c2ccccc2c1OC (stereo not given) [nafadotride]
Experimental result: -0.23
--
Molecule: O=Nc1ccc(O)c2ncccc12
Experimental result: 1.42
--
Molecule: Cc1c(C(=O)N2CCOc3ccc(-c4ccc(N)nc4)cc3C2)ccc(S(C)(=O)=O)c1F
Experimental result: -0.37
--
Molecule: CCC(CC)COC(=O)[C@H](C)N[P@](=O)(OC[C@H]1O[C@@](C#N)(c2ccc3c(N)ncnn23)[C@H](O)[C@@H]1O)Oc1ccccc1
Experimental result: 1.51
--
Molecule: CC(=O)NC[C@H]1CN(c2ccc(N3CCN(C(=O)CO)CC3)c(F)c2)C(=O)O1
Experimental result: -0.04
--
Molecule: CC(C)(O)c1coc(S(=O)(=O)NC(=O)Nc2c3c(cc4c2CCC4)CCC3)c1
Experimental result: -3.97
--
Molecule: Nc1nccc(Oc2ccc(NC(=O)c3c[nH]cc(-c4ccc(F)cc4)c3=O)cc2F)c1Cl
Experimental result: 0.97
--
Molecule: CC(=O)OCC(=O)[C@@]1(O)CC[C@H]2[C@@H]3CCC4=CC(=O)C=C[C@]4(C)[C@@]3(F)[C@@H](O)C[C@@]21C [isoflupredone-acetate]
Experimental result: 0.09
--
Molecule: CCn1nc(C)c2c1C(c1ccccc1)=NCC(=O)N2
Experimental result: 0.56
--
Molecule: CO[C@@]1(NC(=O)CSC[C@@H](N)C(=O)O)C(=O)N2C(C(=O)O)=C(CSc3nnnn3C)CS[C@@H]21
Experimental result: -1.2
--
Molecule: COc1ccc(NS(=O)(=O)c2ccc(N)cc2)nn1
Experimental result: 2.29
--
Molecule: CCCC(C)C1(CC)C(=O)NC(=S)NC1=O (stereo not given)
Experimental result: 0.2
--
Molecule: CC[C@@H](CO)NC(=O)[C@@H]1C=C2c3cccc4c3c(cn4C)C[C@H]2N(C)C1 [methysergide]
Experimental result: 0.82
--
Molecule: COc1ccc(CC(C)NCC(O)c2ccc(O)c(NC=O)c2)cc1 (stereo not given)
Experimental result: 1.69
--
Molecule: Cc1[nH]c(/C=C2\C(=O)Nc3ccc(S(=O)(=O)Cc4c(Cl)cccc4Cl)cc32)c(C)c1C(=O)N1CCC[C@@H]1CN1CCCC1
Experimental result: -1.94
--
Molecule: COc1ccc(CCNCC(O)COc2cccc(C)c2)cc1OC (stereo not given)
Experimental result: -4.47
--
Molecule: O=C(O)c1cc(C(=O)O)c(C(=O)N(Cc2cccc(Oc3ccccc3)c2)[C@H]2CCCc3ccccc32)cc1C(=O)O
Experimental result: -1.42
--
Molecule: CC[C@@H](C)N(C)C(=O)c1cc2ccccc2c(-c2ccccc2Cl)n1
Experimental result: -0.6
--
Molecule: O=C(c1cccc(Br)c1)N1CCC(N2CCCC2)CC1
Experimental result: -0.46
--
Molecule: C[C@H]1C[C@H]2[C@@H]3CCC4=CC(=O)C=C[C@]4(C)[C@H]3C(=O)C[C@]2(C)[C@@]1(O)C(=O)CO
Experimental result: 2.1
--
Molecule: C[C@@H]1CN(Cc2ncccn2)C[C@H]1c1nc2c(cnn2C2CCOCC2)c(=O)[nH]1
Experimental result: -0.33
--
Molecule: Nc1ncnc2nc(-c3ccc(N4CCOCC4)nc3)cc(-c3cccc(Br)c3)c12
Experimental result: -5
--
Molecule: O=C(O)C(F)(F)C(F)(F)C(F)(F)C(F)(F)C(F)(F)C(F)(F)C(F)(F)F [ammonium-perfluorocaprylate]
Experimental result: 0.56
--
Molecule: CC1=C(C(=O)Nc2cc3cn[nH]c3cc2F)C(c2ccc(C(F)(F)F)cc2)CC(=O)N1 (stereo not given)
Experimental result: 1.5
--
Molecule: CCCCN(CCCC)C(=O)CN1C[C@H](c2ccc3c(c2)OCO3)[C@@H](C(=O)O)[C@@H]1c1ccc(OC)cc1
Experimental result: 1.15
--
Molecule: FC(F)c1nc2ccccc2n1-c1nc(N2CCOCC2)nc(N2CCOCC2)n1
Experimental result: 0.03
--
Molecule: C[n+]1cccc(C(=O)[O-])c1
Experimental result: 1.81
--
Molecule: O=C(CCCN1CC=C(n2c(=O)[nH]c3ccccc32)CC1)c1ccc(F)cc1
Experimental result: 0.3
--
Molecule: CN(C)N(C)C(=O)[C@@]1(Cc2ccccc2)CCCN(C(=O)[C@@H](Cc2c[nH]c3ccccc23)NC(=O)C(C)(C)N)C1
Experimental result: 9.14
--
Molecule: CC(C)[C@@H](C(=O)Nc1nccs1)c1ccc(Cl)cc1
Experimental result: 1.05
--
Molecule: Clc1cccc(/C=N/N=C/c2cccc(Cl)c2)c1
Experimental result: 1.33
--
Molecule: Fc1ccc(C(OCCN2CCN(C/C=C/c3ccccc3)CC2)c2ccc(F)cc2)cc1
Experimental result: 3.35
